target.system: CypB (Homo sapiens, UniProt P23284)
Construct: PPIB (UniProtKB Entry P23284: residues 34–216); His6 with TEV site (2BT vector leader) (N); made in house; host or cells: E. coli BL21(DE3)
Sequence (P23284 34-216): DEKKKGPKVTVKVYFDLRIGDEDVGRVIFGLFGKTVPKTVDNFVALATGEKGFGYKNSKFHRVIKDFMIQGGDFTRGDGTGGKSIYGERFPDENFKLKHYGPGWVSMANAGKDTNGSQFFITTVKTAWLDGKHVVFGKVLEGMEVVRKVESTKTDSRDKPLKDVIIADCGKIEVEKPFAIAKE
experiment: biochemical
measurement.parameters: CypB (comparator for CypB E121S); read-out: Mutant Cyclophilin Prolyl Isomerase Inhibition IC50 Values, CypB
assay.endpoint: pIC50
// pIC50 here means minus log10 of the molar concentration (mol/L)

Entry under review: NCCOCCNC(=O)[C@@H]1CCNC(=O)/C=C/C(=O)N2CCC[C@](Cc3ccccc3)(C2)C(=O)N[C@@H](Cc2ccc(-c3ccc(C#CC(=O)O)cc3)cc2)C(=O)NCc2ccccc2CC(=O)N1 [Compound B25] . Reported pIC50?
7.96

Next up: NCCOCCNC(=O)[C@@H]1CCNC(=O)/C=C/C(=O)N2CCC[C@](Cc3ccccc3)(C2)C(=O)N[C@@H](Cc2ccc(-c3ccc(CCC(=O)O)cc3)cc2)C(=O)NCc2ccccc2CC(=O)N1 [Compound B23]
7.66

Now this one: NCCOCCNC(=O)[C@@H]1CCNC(=O)/C=C/C(=O)N2CCC[C@](Cc3ccccc3)(C2)C(=O)N[C@@H](Cc2ccc(-c3ccc(C(CC(=O)O)CC(=O)O)cc3)cc2)C(=O)NCc2ccccc2CC(=O)N1 [Compound B53]
6.30

Field entry: NCCOCCNC(=O)[C@@H]1CCNC(=O)/C=C/C(=O)N2CCC[C@](Cc3ccccc3)(C2)C(=O)N[C@@H](Cc2ccc(-c3ccc(CC(C(=O)O)C(=O)O)cc3)cc2)C(=O)NCc2ccccc2CC(=O)N1 [Compound B52]
6.70

Origin of the recorded values: paper PMC9596378
